Values were extracted from paper PMC5584254.

# MEASUREMENT TARGET: Bcl-xL-Beclin 1 complex (Homo sapiens, UniProt Q07817)
# Construct: made in house
# Sequence (Q07817 whole entry, one chain of several): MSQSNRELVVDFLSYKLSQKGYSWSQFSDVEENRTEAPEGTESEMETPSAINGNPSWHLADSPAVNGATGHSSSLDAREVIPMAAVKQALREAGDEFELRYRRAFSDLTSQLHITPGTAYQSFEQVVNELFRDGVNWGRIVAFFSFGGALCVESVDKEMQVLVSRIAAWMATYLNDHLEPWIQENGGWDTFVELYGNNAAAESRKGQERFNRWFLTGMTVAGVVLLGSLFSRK
# PROTOCOL DETAILS: Concentration response FP reconfirmation of HTS hits
# Type: binding
# ASSAY CONDITIONS: 5 μM; hits of first screen
READOUT LABEL: Dose-response (% Inhibition) 5 μM (%)
Supply the numeric figure in %, leaving out any unit text.

Look over these answered cases.
CCCCCCCCCCCCCCCCC(C(=O)O)C(O)(CC(=O)O)C(=O)O (stereo not shown) : 3.8
CCN(CC)CCNC(=O)COc1ccc(OC)cc1.Cl [Compound A32, MEFEXAMIDE HYDROCHLORIDE] : -1.5
C[n+]1c2cc(N)ccc2cc2ccc(N)cc21.[Cl-] [Compound A26, ACRIFLAVINIUM HYDROCHLORIDE] : 102.5

With those in mind, consider the next compound.
Looking up CC[N+](C)(CC)CCC[n+]1c(-c2ccccc2)c2cc(N)ccc2c2ccc(N)cc21.[I-].[I-] [Compound A40, PROPIDIUM IODIDE] , I found its Dose-response (% Inhibition) 5 μM recorded as 0.5

###

# MEASUREMENT TARGET: Bcl-xL-Beclin 1 complex (Homo sapiens, UniProt Q07817)
# Construct: made in house
# PROTOCOL DETAILS: FP-based high-throughput screening, primary screen
# Type: binding
# ASSAY CONDITIONS: first screen; 40 μM compound, 2.5 μM Bcl-xL, 400 nM 20-mer
Where a name gives a salt, the structure may show the parent alone.
READOUT LABEL: Primary Screen mP
Answer format reminder: number followed by unit.

As a guide, the following entries are already answered.
COc1cccc2c1C(=O)c1c(O)c3c(c(O)c1C2=O)C[C@@](O)(C(=O)CO)C[C@@H]3O[C@H]1C[C@H](N)[C@H](O)[C@H](C)O1 [Compound A25, DOXORUBICIN HYDROCHLORIDE] : 75.9 mP
COc1cccc2c1C(=O)c1c(O)c3c(c(O)c1C2=O)C[C@@](O)(C(C)=O)C[C@@H]3O[C@H]1C[C@H](N)[C@H](O)[C@H](C)O1 : 75.5 mP

# ---- query molecule ----
`CCCCCCCCCc1ccc(OCCOCCOCCOCCOCCOCCOCCOCCOCCO)cc1` yielded Primary Screen mP of 127.2 mP

###

# Tested on: DU145
# PROTOCOL DETAILS: MTT-based cytotoxicity assay, DU145
# ASSAY CONDITIONS: Homo sapiens, DU-145, averages of at least two independent experiments, read-out: Cytotoxicity in different cell lines (IC50, μM) DU145
READOUT LABEL: IC50

COc1ccc2nc3cc(Cl)ccc3c(-c3ccc(F)cc3)c2c1 : > 100 µM

Input `COc1ccc2nc3ccccc3c(-c3ccc([N+](=O)[O-])cc3)c2c1` . Output IC50: > 100 µM

For this molecule ( `COc1ccc2nc3cc(Cl)ccc3c(-c3ccc([N+](=O)[O-])cc3)c2c1` ), measured IC50 is > 100 µM

// recorded IC50 for `COc1ccc(CCNc2ncnc3ccccc23)cc1OC` : > 100 µM

IC50 measured on `O=C(CSc1nc(=O)c2ccccc2[nH]1)c1ccc(O)c(O)c1` = > 100 µM

The reported value for `COc1ccc2nc3cc(Cl)ccc3c(NCCOCCO)c2c1` in terms of IC50 is 3.68 µM

Quick note, IC50 for `COc1ccc2nc3cc(Cl)ccc3c(-c3ccncc3)c2c1` landed at 57 µM

Record CCOc1ccc2nc3cc(N)ccc3c(N)c2c1 [Compound A15, ETHACRIDINE LACTATE] . Reported IC50: 10.5 µM

The reported value for Nc1ccc2cc3ccc(N)cc3nc2c1 [Compound A13, PROFLAVINE HEMISULFATE] in terms of IC50 is 0.81 µM
